experiment_summary: Radiochemical purity of [^18F]PI-2620 radiopharmaceutical composition over time at 40° C. by HPLC
Format: physicochemical
cond: [^18F]PI-2620, ethanol and water for injection (10% ethanol), 50 mg/mL vitamin, no phosphate buffer, 4 hr
quantity_name: Purity (radiochemical purity) (%)

# molecule, Purity (radiochemical purity) [%]
records = [
    ("Cc1ncc(C[n+]2csc(CCO)c2C)c(N)n1", 99.1),
    ("C/C1=C2/[N-][C@H]([C@H](CC(N)=O)[C@@]2(C)CCC(=O)NC[C@H](C)OP(=O)([O-])O[C@H]2[C@@H](O)[C@@H](n3cnc4cc(C)c(C)cc43)O[C@@H]2CO)[C@]2(C)N=C(/C(C)=C3N=C(/C=C4N=C1[C@@H](CCC(N)=O)C\\4(C)C)[C@@H](CCC(N)=O)[C@]\\3(C)CC(N)=O)[C@@H](CCC(N)=O)[C@]2(C)CC(N)=O.[Co+2] (stereo in doubt)", 98.7),
    ("Nc1ccc(C(=O)O)cc1", 98.83),
    ("Nc1ncnc2c1ncn2[C@@H]1O[C@H](COP(=O)(O)O)[C@@H](O)[C@H]1O [VB8, adenosine phosphate]", 98.8),
]
